Taken from patent US5663331A.

system: Klebsiella pneumoniae ATCC 10031; assay: MIC, two-fold dilution method, Klebsiella pneumoniae ATCC 10031; assay type: cell-based; conditions: Muller Hinton Broth, 10^6 CFU per ml, 37° C., 18 to 20 hours
Kindly state Antibacterial Activity (MIC) for each of the entries shown.
Give the value, in units of µg/mL, as a plain number.

Prompt: Which Antibacterial Activity (MIC) value belongs to C=CCO/N=C(\C(=O)NC1C(=O)N2C(C(=O)[O-])=C(CSc3cc[n+](CC=C)c4cc(N5CCNCC5C)c(F)cc34)CS[C@H]12)c1csc(N)n1 (stereo partly drawn) ?
Completion: 0.78

Prompt: Which Antibacterial Activity (MIC) value belongs to C=CC[n+]1ccc(SCC2=C(C(=O)[O-])N3C(=O)C(NC(=O)/C(=N\OC(C)(C)C(=O)O)c4csc(N)n4)[C@H]3SC2)c2cc(F)c(N3CCNCC3C)cc21 (stereo partly drawn) ?
Completion: 1.56

Prompt: Which Antibacterial Activity (MIC) value belongs to C#CCO/N=C(\C(=O)NC1C(=O)N2C(C(=O)[O-])=C(CSc3cc[n+](CC=C)c4cc(N5CCNCC5C)c(F)cc34)CS[C@H]12)c1csc(N)n1 (stereo partly drawn) ?
Completion: 1.56

###

Kindly state Antibacterial Activity (MIC) for each of the entries shown.
tested on: Staphylococcus epidermidis ATCC 12228; test: MIC, two-fold dilution method, Staphylococcus epidermidis ATCC 12228; type: cell-based; settings: Muller Hinton Broth, 10^6 CFU per ml, 37° C., 18 to 20 hours
Give the value, in units of µg/mL, as a plain number.

Prompt: Which Antibacterial Activity (MIC) value belongs to CO/N=C(\C(=O)NC1C(=O)N2C(C(=O)[O-])=C(CSc3cc[n+](C4CC4)c4cc(-n5cnc(C)c5)c(F)cc34)CSC12)c1csc(N)n1 (stereo not shown) ?
Completion: 0.39

Prompt: Which Antibacterial Activity (MIC) value belongs to C#CCO/N=C(\C(=O)NC1C(=O)N2C(C(=O)[O-])=C(CSc3cc[n+](C4CC4)c4cc(N5CCNCC5C)c(F)cc34)CS[C@H]12)c1csc(N)n1 (stereo partly shown) ?
Completion: 0.2

Prompt: Which Antibacterial Activity (MIC) value belongs to C=CCO/N=C(\C(=O)NC1C(=O)N2C(C(=O)[O-])=C(CSc3cc[n+](CC=C)c4cc(N5CCNCC5C)c(F)cc34)CS[C@H]12)c1csc(N)n1 (stereo partly shown) ?
Completion: 1.56

Prompt: Which Antibacterial Activity (MIC) value belongs to C#CCO/N=C(\C(=O)NC1C(=O)N2C(C(=O)[O-])=C(CSc3cc[n+](CC=C)c4cc(N5CCNCC5C)c(F)cc34)CS[C@H]12)c1csc(N)n1 (stereo partly shown) ?
Completion: 1.56

Prompt: Which Antibacterial Activity (MIC) value belongs to C=CC[n+]1ccc(SCC2=C(C(=O)[O-])N3C(=O)C(NC(=O)/C(=N\OC)c4csc(N)n4)C3SC2)c2cc(F)c(N3CCNCC3C)cc21 (stereo not shown) ?
Completion: 0.39

Prompt: Which Antibacterial Activity (MIC) value belongs to C=CCO/N=C(\C(=O)NC1C(=O)N2C(C(=O)[O-])=C(CSc3cc[n+](CC)c4cc(N5CCNCC5C)c(F)cc34)CS[C@H]12)c1csc(N)n1 (stereo partly shown) ?
Completion: 0.78

Prompt: Which Antibacterial Activity (MIC) value belongs to CC[n+]1ccc(SCC2=C(C(=O)[O-])N3C(=O)C(NC(=O)/C(=N\OC(C)(C)C(=O)O)c4csc(N)n4)[C@H]3SC2)c2cc(F)c(N3CCNCC3)cc21 (stereo partly shown) ?
Completion: 1.56

###

Endpoint: MIC. System: Staphylococcus epidermidis ATCC 12228. Items follow.
Give the value, in units of µg/mL, as a plain number.

Prompt: What measured MIC is associated with C=CCO/N=C(\C(=O)NC1C(=O)N2C(C(=O)[O-])=C(CSc3cc[n+](CC)c4cc(N5CCNCC5)c(F)cc34)CS[C@H]12)c1csc(N)n1 (stereo partly shown) on Staphylococcus epidermidis ATCC 12228?
Completion: 0.78

Prompt: What measured MIC is associated with C#CCO/N=C(\C(=O)NC1C(=O)N2C(C(=O)[O-])=C(CSc3cc[n+](C)c4cc(N5CCN(CC)CC5)c(F)cc34)CSC12)c1csc(N)n1 (stereo not shown) on Staphylococcus epidermidis ATCC 12228?
Completion: 0.2

Prompt: What measured MIC is associated with CC[n+]1ccc(SCC2=C(C(=O)[O-])N3C(=O)C(NC(=O)/C(=N\OC)c4csc(N)n4)C3SC2)c2cc(F)c(N3CCNCC3)cc21 (stereo not shown) on Staphylococcus epidermidis ATCC 12228?
Completion: 0.2

Prompt: What measured MIC is associated with C=CCO/N=C(\C(=O)NC1C(=O)N2C(C(=O)[O-])=C(CSc3cc[n+](CC=C)c4cc(N5CCN(C)CC5)c(F)cc34)CSC12)c1csc(N)n1 (stereo not shown) on Staphylococcus epidermidis ATCC 12228?
Completion: 1.56

Prompt: What measured MIC is associated with CC[n+]1ccc(SCC2=C(C(=O)[O-])N3C(=O)C(NC(=O)/C(=N\OC)c4csc(N)n4)C3SC2)c2cc(F)c(N3CCN(C)CC3)cc21 (stereo not shown) on Staphylococcus epidermidis ATCC 12228?
Completion: 1.56

Prompt: What measured MIC is associated with C#CCO/N=C(\C(=O)NC1C(=O)N2C(C(=O)[O-])=C(CSc3cc[n+](C4CC4)c4cc(N5CCNCC5)c(F)cc34)CS[C@H]12)c1csc(N)n1 (stereo partly shown) on Staphylococcus epidermidis ATCC 12228?
Completion: 0.78

Prompt: What measured MIC is associated with CCN1CCN(c2cc3c(cc2F)c(SCC2=C(C(=O)[O-])N4C(=O)C(NC(=O)/C(=N\OC(C)(C)C(=O)O)c5csc(N)n5)C4SC2)cc[n+]3C)CC1 (stereo not shown) on Staphylococcus epidermidis ATCC 12228?
Completion: 0.78

###

Kindly state MIC for each of the entries shown.
Give the value, in units of µg/mL, as a plain number.

Prompt: What measured MIC is associated with C=CCO/N=C(\C(=O)NC1C(=O)N2C(C(=O)[O-])=C(CSc3cc[n+](C)c4cc(N5CCN(CC)CC5)c(F)cc34)CSC12)c1csc(N)n1 (centres unmarked) on Bacillus subtilis ATCC 6633?
Completion: 0.2

Prompt: What measured MIC is associated with CCN1CCN(c2cc3c(cc2F)c(SCC2=C(C(=O)[O-])N4C(=O)C(NC(=O)/C(=N\OC)c5csc(N)n5)C4SC2)cc[n+]3C)CC1 (centres unmarked) on Bacillus subtilis ATCC 6633?
Completion: 0.2

Prompt: What measured MIC is associated with CO/N=C(\C(=O)NC1C(=O)N2C(C(=O)[O-])=C(CSc3cc[n+](C4CC4)c4cc(N5CCN(C)CC5)c(F)cc34)CSC12)c1csc(N)n1 (centres unmarked) on Bacillus subtilis ATCC 6633?
Completion: 0.39

Prompt: What measured MIC is associated with C#CCO/N=C(\C(=O)NC1C(=O)N2C(C(=O)[O-])=C(CSc3cc[n+](C)c4cc(N5CCN(CC)CC5)c(F)cc34)CSC12)c1csc(N)n1 (centres unmarked) on Bacillus subtilis ATCC 6633?
Completion: 0.2

Prompt: What measured MIC is associated with CO/N=C(\C(=O)NC1C(=O)N2C(C(=O)[O-])=C(CSc3cc[n+](C)c4cc(N5CCNCC5)c(F)cc34)CSC12)c1csc(N)n1 (centres unmarked) on Bacillus subtilis ATCC 6633?
Completion: 0.2

Prompt: What measured MIC is associated with CO/N=C(\C(=O)NC1C(=O)N2C(C(=O)[O-])=C(CSc3cc[n+](C)c4cc(N5CCN(C)CC5)c(F)cc34)CSC12)c1csc(N)n1 (centres unmarked) on Bacillus subtilis ATCC 6633?
Completion: 0.39

Prompt: What measured MIC is associated with C=CCO/N=C(\C(=O)NC1C(=O)N2C(C(=O)[O-])=C(CSc3cc[n+](CC)c4cc(N5CCN(C)CC5)c(F)cc34)CSC12)c1csc(N)n1 (centres unmarked) on Bacillus subtilis ATCC 6633?
Completion: 0.39

Prompt: What measured MIC is associated with CO/N=C(\C(=O)NC1C(=O)N2C(C(=O)[O-])=C(CSc3cc[n+](C4CC4)c4cc(N5CCNCC5)c(F)cc34)CS[C@H]12)c1csc(N)n1 (some centres unmarked) on Bacillus subtilis ATCC 6633?
Completion: 0.39

Prompt: What measured MIC is associated with C#CCO/N=C(\C(=O)NC1C(=O)N2C(C(=O)[O-])=C(CSc3cc[n+](CC)c4cc(N5CCN(C)CC5)c(F)cc34)CSC12)c1csc(N)n1 (centres unmarked) on Bacillus subtilis ATCC 6633?
Completion: 0.78

Prompt: What measured MIC is associated with C#CCO/N=C(\C(=O)NC1C(=O)N2C(C(=O)[O-])=C(CSc3cc[n+](C)c4cc(N5CCNCC5)c(F)cc34)CS[C@H]12)c1csc(N)n1 (some centres unmarked) on Bacillus subtilis ATCC 6633?
Completion: 0.2

Prompt: What measured MIC is associated with CO/N=C(\C(=O)N[C@@H]1C(=O)N2C(C(=O)O)=C(COC(C)=O)CS[C@H]12)c1csc(N)n1 [CTX, Cefotaxime, reference compound] on Bacillus subtilis ATCC 6633?
Completion: 0.2
